experiment: Pharmacokinetics after oral gavage; assay type: in vivo, rat; conditions: Sprague-Dawley, rat, plasma, po, 10 mg/kg, oral administration, 60 min, Rat1; read-out: plasma level
quantity-name: concentration at 60 min (ng/mL)

COc1ccccc1CN(C(=O)CC(C)C)[C@@H](C(=O)NC[C@H]1CCCO1)c1ccc(C)cc1 [Compound 8 (R,R)]
1.3

====

assay: Pharmacokinetics after IV administration, brain penetration assessment; type: in vivo, rat; settings: Sprague-Dawley, rat, plasma, iv, 7.5 mg/kg, Time 15, R2, read-out: Plasma level
quantity-name: concentration at 15 min

COc1ccccc1CN(C(=O)CC(C)C)[C@@H](C(=O)NC[C@H]1CCCO1)c1ccc(C)cc1 [Compound 8 (R,R)]
1140 ng/mL
